Let's look at some sequences and their measured pKd.
target: ternary troponin complex I-T-C (cTnI-cTnT-cTnC) (UniProt P19429+P45379+P63316); assay: SPR imaging; conditions: L-DNA (all L-2'-deoxyribose); SPRi: PBS (10 mM phosphate, 137 mM NaCl, 2.7 mM KCl, pH 7.4), 25 C; filter binding: PBS, RT, 1 h; AlphaLisa: selection buffer (PBS, 1 mg/mL BSA, 0.01 ug/mL …)
pKd: −log10 of the molar value.

- SEQ_STRING: "CAGTGAGTGATGGTGAGGGCTTAGTTCGCCGCTCATGCCGAATCTCCTGTATAAATACCCACACTGTCCATACACG [A6 spiegelmer]"
  pKd: 9.27
- SEQ_STRING: "CAGTGAGTGATGGTGAGGGTGAATCGGTGTCGACTATTAAATTAAGTTGTGGTTGTTCCCACACTGTCCATACACG [C6 spiegelmer]"
  pKd: 9.52
